Listed here: items and their measured Remaining activity [%].
- system: VLP2 (virus-like particles, capsid protein particles of AAV serotype 2) (AAV serotype 2 (AAV2)) (UniProt P03135)
- Sequence (P03135 whole entry): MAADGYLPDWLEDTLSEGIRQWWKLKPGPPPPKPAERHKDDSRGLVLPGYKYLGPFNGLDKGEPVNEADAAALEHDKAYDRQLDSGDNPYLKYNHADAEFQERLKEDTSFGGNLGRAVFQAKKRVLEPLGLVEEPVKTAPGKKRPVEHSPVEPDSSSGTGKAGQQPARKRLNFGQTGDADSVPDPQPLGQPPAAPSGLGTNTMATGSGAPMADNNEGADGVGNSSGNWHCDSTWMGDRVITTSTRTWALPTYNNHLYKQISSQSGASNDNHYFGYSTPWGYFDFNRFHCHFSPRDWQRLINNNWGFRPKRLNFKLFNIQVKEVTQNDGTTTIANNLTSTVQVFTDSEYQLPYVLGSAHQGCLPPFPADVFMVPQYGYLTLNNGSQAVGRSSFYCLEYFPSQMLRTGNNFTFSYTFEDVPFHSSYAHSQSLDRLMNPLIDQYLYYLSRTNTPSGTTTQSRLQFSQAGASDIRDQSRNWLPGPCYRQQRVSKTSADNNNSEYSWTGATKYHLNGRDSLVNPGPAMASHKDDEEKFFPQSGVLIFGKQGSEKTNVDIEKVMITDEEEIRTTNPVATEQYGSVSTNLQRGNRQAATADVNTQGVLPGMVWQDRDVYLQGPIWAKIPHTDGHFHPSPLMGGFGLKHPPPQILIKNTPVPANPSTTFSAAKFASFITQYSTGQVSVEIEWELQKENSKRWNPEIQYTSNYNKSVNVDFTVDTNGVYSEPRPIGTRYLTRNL
- test: ELISA on immobilised VLP2 (culture supernatant, anti-His detection); A450 after 1:1 0.5 M NaOH, 30 min, 30°C divided by A450 untreated
Please give the number followed by its unit.

- binder: "AVR21 with E340G (receptor) MGSAGESDQITLPKHEAQLNVYVLLVPPKGGASTYDWQLITHPRDYSGEMEGEHSQILKLSNLTPGLYEYRAVVEGQNAHSEGYVNVTVEPEPRKNRPPIAIVSPQFQEISLPTTSTVIDGSQSTDDDKIVQYHWEELKGPLREEKISEDTAILKLSQLVPGNYTFRLTVVDTDGATDSTTADLTVNKAVDHHHHHH"
  Remaining activity [%]: "28.1%"
- binder: "AVR21 with D500N (receptor) MGSAGESDQITLPKHEAQLNVYVLLVPPKGEASTYDWQLITHPRDYSGEMEGEHSQILKLSNLTPGLYEYRAVVEGQNAHSEGYVNVTVEPEPRKNRPPIAIVSPQFQEISLPTTSTVIDGSQSTDDDKIVQYHWEELKGPLREEKISEDTAILKLSQLVPGNYTFRLTVVDTDGATDSTTADLTVNKAVNHHHHHH"
  Remaining activity [%]: "39.3%"

# context switch: different binder, same Remaining activity [%]
Query block: Could you share which Remaining activity [%] value was measured for AVR21 with E360D, H389R (receptor) MGSAGESDQITLPKHEAQLNVYVLLVPPKGEASTYDWQLITHPRDYSGEMDGEHSQILKLSNLTPGLYEYRAVVEGQNARSEGYVNVTVEPEPRKNRPPIAIVSPQFQEISLPTTSTVIDGSQSTDDDKIVQYHWEELKGPLREEKISEDTAILKLSQLVPGNYTFRLTVVDTDGATDSTTADLTVNKAVDHHHHHH ?
Result block: 46.7%
